Could you please report measured pEC50 for the items listed next?
# MEASUREMENT_PROTOCOL: Inhibition of BCRP (unknown origin) transfected in HEK293/R2 cells assessed as reversal of topotecan resistance after 5 days by MTS/PMS assay
# pEC50 is unitless: minus log10 of the molar concentration; print number only

# input For `COC(=O)c1cccc(COc2c(-c3ccc(OCCOCCn4cc(CN(Cc5ccccc5)Cc5ccccc5)nn4)cc3)oc3ccccc3c2=O)c1` , write its pEC50.
# output 7.49

# input For `C#CCCCCOc1ccc(-c2cc(=O)c3cc(F)ccc3o2)cc1` , write its pEC50.
# output 6.62

# input For `[N-]=[N+]=NCCOCCOc1ccc(-c2cc(=O)c3cc(F)ccc3o2)cc1` , write its pEC50.
# output 6.08

# input For `C#CCCCOc1ccc(-c2cc(=O)c3c(OCc4ccccc4)cc(OCOC)cc3o2)cc1` , write its pEC50.
# output 6.70

# input For `[N-]=[N+]=NCCOCCOCCOc1ccc(-c2cc(=O)c3ccccc3o2)cc1` , write its pEC50.
# output 6.44

# input For `[N-]=[N+]=NCCOc1ccc2c(=O)cc(-c3ccccc3)oc2c1` , write its pEC50.
# output 6.67

# input For `COC(=O)c1cccc(COc2c(-c3ccc(OCCOCCn4cc(-c5cccc(-c6cn(CCOCCOc7ccc(-c8oc9ccccc9c(=O)c8OCc8cccc(C(=O)OC)c8)cc7)nn6)c5)nn4)cc3)oc3ccccc3c2=O)c1` , write its pEC50.
# output 8.60

# input For `COc1cccc(COc2c(-c3ccc(OCCOCCN=[N+]=[N-])cc3)oc3ccccc3c2=O)c1` , write its pEC50.
# output 7.12

# input For `Cc1ccc2oc(-c3ccc(OCCOCCOCCN=[N+]=[N-])cc3)cc(=O)c2c1` , write its pEC50.
# output 6.12

# input For `[N-]=[N+]=NCCOCCOCCOc1ccc(-c2oc3ccccc3c(=O)c2OCc2ccccc2)cc1` , write its pEC50.
# output 7.28

# input For `COC(=O)c1cccc(COc2c(-c3ccc(OCCOCCOCCn4cc(CCCCOc5ccc(C=O)cc5)nn4)cc3)oc3ccccc3c2=O)c1` , write its pEC50.
# output 7.72

# input For `[N-]=[N+]=NCCOCCOCCOc1ccc2c(=O)cc(-c3ccccc3)oc2c1` , write its pEC50.
# output 6.75

# input For `COC(=O)c1cccc(COc2c(-c3ccc(OCCOCCn4cc(CN(C)Cc5ccccc5)nn4)cc3)oc3ccccc3c2=O)c1` , write its pEC50.
# output 7.82

# input For `[N-]=[N+]=NCCOCCOc1ccc(-c2oc3ccccc3c(=O)c2OCc2ccccc2)cc1` , write its pEC50.
# output 7.35

# input For `[N-]=[N+]=NCCOCCOc1cccc(-c2oc3ccccc3c(=O)c2OCc2ccccc2)c1` , write its pEC50.
# output 6.77

# input For `C#CCCCCOc1ccc(-c2oc3ccccc3c(=O)c2OCc2cccc(OC)c2)cc1` , write its pEC50.
# output 6.58

# input For `COC(=O)c1cccc(COc2c(-c3ccc(OCCOCCOCCn4cc(CN(C)Cc5ccccc5)nn4)cc3)oc3ccccc3c2=O)c1` , write its pEC50.
# output 7.80

# input For `COC(=O)c1cccc(COc2c(-c3ccc(OCCOCCOCCn4cc(CCN5C(=O)c6ccccc6C5=O)nn4)cc3)oc3ccccc3c2=O)c1` , write its pEC50.
# output 6.80

# input For `C#CCCCOc1ccc(-c2cc(=O)c3ccc(F)cc3o2)cc1` , write its pEC50.
# output 6.49

# input For `COC(=O)c1cccc(COc2c(-c3ccc(OCCOCCn4cc(CNc5ccccc5)nn4)cc3)oc3ccccc3c2=O)c1` , write its pEC50.
# output 7.59

# input For `C#CCCCOc1ccc(-c2cc(=O)c3cc(F)ccc3o2)cc1` , write its pEC50.
# output 6.38

# input For `COC(=O)c1cccc(COc2c(-c3ccc(OCCCCc4cn(Cc5ccccc5)nn4)cc3)oc3ccccc3c2=O)c1` , write its pEC50.
# output 8.15
